Biological target: T1, human PSMA expressed with an N-terminal hexahistidine tag (6h.hPSMA, R&D) (human, UniProt Q04609 44-750)
T1 construct: Bought soluble protein; also called soluble human PSMA; human PSMA protein
T1 sequence (Q04609 other isoform, or with tags, fused parts or gaps limits assumed): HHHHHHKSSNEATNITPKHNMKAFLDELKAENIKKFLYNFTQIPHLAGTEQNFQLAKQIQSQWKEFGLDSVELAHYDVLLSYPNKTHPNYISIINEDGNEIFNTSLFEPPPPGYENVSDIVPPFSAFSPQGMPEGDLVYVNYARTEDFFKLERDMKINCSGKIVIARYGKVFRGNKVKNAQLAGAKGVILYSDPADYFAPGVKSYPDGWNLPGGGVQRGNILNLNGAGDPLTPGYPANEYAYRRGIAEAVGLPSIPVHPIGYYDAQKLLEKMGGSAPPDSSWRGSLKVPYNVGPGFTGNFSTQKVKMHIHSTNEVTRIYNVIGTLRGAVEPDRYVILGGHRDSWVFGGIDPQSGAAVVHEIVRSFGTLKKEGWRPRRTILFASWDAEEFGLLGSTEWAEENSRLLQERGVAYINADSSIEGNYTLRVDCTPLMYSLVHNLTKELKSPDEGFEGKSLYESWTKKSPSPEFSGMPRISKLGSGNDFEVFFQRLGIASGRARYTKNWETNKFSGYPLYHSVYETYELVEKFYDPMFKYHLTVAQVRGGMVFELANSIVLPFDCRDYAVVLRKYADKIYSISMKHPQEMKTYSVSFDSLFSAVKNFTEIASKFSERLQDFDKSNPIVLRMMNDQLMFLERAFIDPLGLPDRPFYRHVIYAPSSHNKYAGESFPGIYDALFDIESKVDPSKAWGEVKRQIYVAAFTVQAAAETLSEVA
Assay: SPR Biacore T-200, 37 C, antibody-capture (anti-human Fc), 6h.hPSMA as analyte
Description: In this example, anti-PSMA antibodies were assessed for their ability to bind to human PSMA. […] Measurements were conducted on a Biacore™ T-200 instrument (GE Healthcare). […] Kinetic association (kₐ) and dissociation (kd) rate constants were determined by fitting the real-time sensorgrams to a 1:1 binding model using Scrubber 2.0c curve fitting software. […]
measurement_kind: Kd (nM)
A number alone suffices; assume nM.

Examples from the recorded data:
{"columns": ["binder", "Kd [nM]"],
 "data": [
  ["H1H11837P2 (antibody, human IgG1, V domains shown, human IgG1) VH: QVQLVESGGGVVQPGRSLRLSCAASGFTFSSYGMHWVRQAPGKGLEWVTFISYDGNNKYYSDSVKGRFAISRDNSKNTLYLQMNSLRAEDTSVYFCAKDQYYDFLTDFGVFDYWGQGTLVTVSS VL: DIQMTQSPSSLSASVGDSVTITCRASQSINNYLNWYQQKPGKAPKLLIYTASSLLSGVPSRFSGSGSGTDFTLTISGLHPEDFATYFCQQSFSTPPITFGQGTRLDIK", 1.66],
  ["H1H11835P2 (antibody, human IgG1, V domains shown, human IgG1) VH: EVQLVESGGGLVQSGGSLRLSCEASGFTFSNYWMTWIRQGPGKGLEWVANIKPDGTENYYVDSVKGRFTISRDNARNSLYLQMTSLKAEDTAVYYCGRMIQFVINIWGQGTLVTVSS VL: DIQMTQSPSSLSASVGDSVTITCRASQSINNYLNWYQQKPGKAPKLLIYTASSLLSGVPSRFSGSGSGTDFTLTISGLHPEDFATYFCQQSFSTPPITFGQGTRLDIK", 14]
]}

Proceed to the following item.
**Query** State the recorded Kd for this entry: H1H3465P (antibody, human IgG1, V domains shown, human IgG1; also called PSMA-VH-3465 (its HCVR)) VH: QVQLVESGGGVVQPGRSLRLSCAASGFTFITYGMHWVRQAPGKGLEWVAIIYYDESNKYYADSVKGRFTISRDISKNTLYLQMNGLRAEDTAVYYCARAPRVAVEEDYSYYYGMDVWGQGTTVTVSS VL: DIQMTQSPSSLSASVGDRVTITCRASQGIRNDLGWYQQKPGRAPKRLIYGASNLQSGVPSRFSGSGSGTEFTLTISSLQPEDFATYYCLQHNSHPYTFGQGTKLEIK
**Result** 0.227
